Values compiled from PubChem BioAssay.

tested on: Fibrinogen (Alexa647-labelled); experiment: fibrinogen binders on compound microarrays, profiling panel, artefact control for SMM control-protein annotation, biochemical, small-molecule microarray, 635/667 nm fluorescence (AID 1131); conditions: fibrinogen-A647 binding fluorescence, higher = more signal;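 also: z-score merges 667 nm fluorescence with per-spot signal-to-noise over triplicate slides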
Catalogue of compounds with associated composite z-score

Examples with answers:
C=C(CCCC)/C(=C/C[C@@H](OC(C)=O)c1ccc(CO)o1)c1cc(C(=O)OC)ccc1OC : 0.715
[N-]=[N+]=Nc1ccccc1C[C@]1(C(=O)NCc2ccccc2)N=C(c2ccc(OCCCO)cc2)O[C@H]1c1ccccc1 : 0.998
C=C(/C=C/CNS(=O)(=O)c1ccc(C)cc1)[C@H](O)[C@H]1CCCN1S(=O)(=O)c1ccccc1[N+](=O)[O-] : 0.53
C=CCN1C(=O)[C@]2(CC=C)N=C(c3ccc(OCCCO)cc3)O[C@@H]2c2ccccc21 : 0.297
C[C@]12C(=O)N(CCCCCCO)[C@@H]3C(=O)N(c4ccc(Cl)cc4)CC=CC31O[C@@H]1/C=C\CCCOC(=O)C12 (some centres not stated) : -2.42

[in] # get_value(readout='composite z-score', item= NC(N)=NCc1cn(CCc2c[nH]c3ccccc23)nn1 )
[out] 0.367

[in] I have this compound here, COC(=O)[C@H](Cc1ccccc1)N1CC(/C=C/C2CC2)=C[C@@H]1[C@@H](O)Cc1ccccc1 , and I need its recorded composite z-score.
[out] 0.971

====

test: fission yeast growth modulation, primary screen, strain 972, OD600, 24 h, no modulator (AID 1090);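 also: basal condition with compound alone and no growth modifier present; test concentration not given here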; details: S. pombe 972 growth, higher = more signal, called active from +8 up or from −8 down
Would you please tag the item Satisfied when its z-score is 0.3 or above, and Not satisfied when it is below?

# count of solved cases: 4
CCCc1cccc(=O)o1 : Satisfied
COCCOC(=O)N1C(=O)[C@@]2(c3cc(C#CCNC(N)=O)ccc31)[C@H](C(=O)N1CCCCCCC1)[C@H]1C(=O)O[C@H](c3ccccc3)[C@H](c3ccccc3)N1[C@@H]2c1ccc(O)cc1 : Not satisfied
COCCCNC(=O)[C@]1(Cc2ccccc2N=[N+]=[N-])N=C(c2ccc(OCCCO)cc2)O[C@@H]1c1ccccc1N=[N+]=[N-] : Not satisfied
CCOC(=O)C[C@H]1[C@H](OC(=O)c2ccccc2-c2ccccc2)[C@@H](NC(=O)c2ccc3ccccc3n2)c2cc(OCCCO)ccc2N1C(=O)c1ccc2ccccc2n1 : Not satisfied

[in] Is z-score for COc1ccc(NN2C(C(O)c3ccccn3)C=CC3C(=O)N(C4CCCCC4)C(=O)C32)cc1 (stereo not drawn) at or above 0.3?
[out] Not satisfied

[in] Could you tell me if the measured z-score of CC(=O)n1cc(C(O)C2C=CC3C(=O)N(Cc4ccccc4)C(=O)C3N2n2cnnc2)c2ccccc21 (stereo not drawn) reaches 0.3 or more?
[out] Satisfied

[in] Is z-score at least 0.3? Consider COc1ccc([Si](C)(C)[C@@H]2[C@@H](CCO)O[C@]3(C(=O)N(Cc4cccc(N5C(=O)c6cccc7cccc5c67)c4)c4ccccc43)[C@H]2C)cc1
[out] Satisfied

[in] Kindly determine if z-score recorded for COc1ccc([Si](C)(C)[C@H]2[C@H](CCn3cc([C@H](O)c4ccccc4)nn3)O[C@@]3(C(=O)N(Cc4ccc(N5CCOC5=O)cc4)c4ccccc43)[C@@H]2C)cc1 is above or exactly 0.3.
[out] Satisfied

[in] hey, is z-score for this one >= 0.3? O=C1O[C@@H](c2ccccc2)[C@@H](c2ccccc2)N2[C@@H](c3ccc(O)cc3)[C@]3(C(=O)Nc4ccc(C#CCCO)cc43)[C@@H](C(=O)NC[C@H](O)c3ccccc3)[C@H]12
[out] Not satisfied

====

test: modulators of HCV replicon luciferase signal, primary screen, HCV replication inhibitor project, Huh7 cells, luciferase reporter (AID 1109); conditions: 48 h, higher = more signal;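 also: huh7 hepatoma cells harbouring a luciferase neomycin HCV replicon reporter; luciferase luminescence as measure of HCV replicon replication; test concentration not given here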
Entry flag: Met if z-score reaches -1; Not met if it does not.

COc1cc2c(cc1O)C(C)N(Cc1cc3c(cc1Br)OCO3)CC2 (stereo not drawn) : Met
COCCOC(=O)N1C(=O)[C@@]2(c3cc(C#CC4(O)CCCCCC4)ccc31)[C@H](C(=O)N1CCCCCCC1)[C@H]1C(=O)O[C@H](c3ccccc3)[C@H](c3ccccc3)N1[C@@H]2c1ccc(OCCO)cc1 : Not met
COCCOC(=O)N1C(=O)[C@@]2(c3cc(C#CCC(C(=O)OC)C(=O)OC)ccc31)[C@H](c1ccc(OCCO)cc1)N1[C@H](c3ccccc3)[C@H](c3ccccc3)OC(=O)[C@H]1[C@@H]2C(=O)N1CCN(c2ncccn2)CC1 : Not met

[in] # bool: z-score of C=CC[C@]1(C(=O)N(C)C)N=C(c2ccc(OCCCO)cc2)O[C@H]1c1ccccc1N=[N+]=[N-] >= -1
[out] Met

[in] I'd appreciate it if you could say whether COc1ccc([Si](C)(C)[C@H]2[C@H](CCn3cc([C@H](O)c4ccccc4)nn3)O[C@@]3(C(=O)N(Cc4ccc(N5CCC5=O)cc4)c4ccccc43)[C@@H]2C)cc1 has z-score at least equal to -1.
[out] Met

[in] Hello, I need to know if NC(=O)NCC#Cc1ccc2c(c1)[C@]1(C(=O)N2)[C@H](C(=O)O)[C@H]2C(=O)O[C@H](c3ccccc3)[C@H](c3ccccc3)N2[C@@H]1c1ccccc1OCCO has measured z-score not below -1. Thanks!
[out] Met

[in] Can C[C@@H]1ON(c2ccc(C(=O)OC(C)(C)C)cc2)[C@H](c2ccc(Br)cc2)[C@H]1C(=O)N1C(=O)OC[C@H]1Cc1ccccc1 be said to have z-score at or above -1?
[out] Met

====

Below: a set of entries, each annotated with reported composite z-score.
target: Streptavidin (Streptomyces avidinii) (UniProt P22629); assay: streptavidin binders on small-molecule microarray, primary screen, artefact control for SMM compound annotation, biophysical, 635/667 nm fluorescence (AID 1147); details: streptavidin binding, higher = more signal;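 also: signal reflects streptavidin binding to arrayed compounds as a control protein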
Sequence (P22629 whole entry, looked up): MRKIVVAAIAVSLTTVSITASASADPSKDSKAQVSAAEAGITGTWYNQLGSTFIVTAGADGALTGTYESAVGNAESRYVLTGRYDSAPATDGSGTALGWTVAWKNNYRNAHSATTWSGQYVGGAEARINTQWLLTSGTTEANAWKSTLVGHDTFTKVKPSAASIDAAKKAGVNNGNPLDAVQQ
# answer = number (no unit)

NCCCCCCNC(=O)[C@H]1C[C@H]2C(=O)N[C@@H](Cc3ccccc3)C(=O)N2[C@H]1c1ccc(O)cc1 : 1.38

[in] I would be grateful if you could share the reported composite z-score for NC(=O)N1C(=O)C2C(C1=O)C1C=C(c3ccc(CO)cc3)C2C(C2CC2)N1Cc1sc2ccccc2c1Cl (centres undefined) .
[out] 1.43

[in] Given CC(=O)NCCCC[C@@H]1NC(=O)[C@@H]2C[C@H](C(=O)O)[C@H](c3ccc(O)cc3)N2C1=O , state its recorded composite z-score.
[out] -1.04

[in] Suppose we examine the compound COC(=O)[C@@]1(Cc2ccc(F)cc2)[C@H]2c3cc(C(=O)N4CCCC4)n(CCF)c3C[C@H]2CN1C(=O)c1ccccc1 ; what composite z-score value has been reported?
[out] 1.99

====

assay: PSAC antagonists in infected red cells, primary screen, cell-based, P. falciparum Indochina, OD700, 18 h (AID 1157); conditions: P. falciparum Indochina infected erythrocytes, osmotic lysis OD700, 18 h; higher = more signal, called active from +8 up or from −8 down
Decision: z-score compared against 0.7; not below it gives YES, below it gives NO.

Answered examples (5):
C=CC[C@@]1(C(=O)O)N=C(c2ccc(OCCCO)cc2)O[C@@H]1c1ccccc1 : NO
COCCOC(=O)N1C(=O)[C@@]2(c3cc(C#CCC(C(=O)OC)C(=O)OC)ccc31)[C@H](c1ccc(OCCO)cc1)N1[C@H](c3ccccc3)[C@H](c3ccccc3)OC(=O)[C@H]1[C@@H]2C(=O)N1CCN(c2ncccn2)CC1 : NO
CC(C)CN1C(=O)[C@@]2(Cc3ccccc31)c1ccccc1C(=O)N(Cc1ccccc1C(F)(F)F)[C@H]2c1ccc(CO)cc1 : NO
COCC(=C=CC[C@H](O)c1ccc(OCCO)cc1)C[C@H](O)COCc1ccccc1 : NO
CCOC(=O)C1=CC[C@@H](c2cc(Cl)ccc2Cl)N(S(=O)(=O)c2ccc(C)cc2)[C@H]1c1ccc(OC)cc1 : YES

[in] In plain terms: is recorded z-score at least 0.7 for COC(=O)[C@@]1(Cc2ccc(OC)cc2)[C@H]2c3cc(C(=O)N(C)C)n(Cc4ccccc4)c3C[C@H]2CN1C(=O)c1ccccc1 ?
[out] NO

[in] Dear colleague, could you confirm whether CC(C)C(O)C1C=CC2C(=O)N(C)C(=O)C2N1Nc1ccccc1 (configuration not stated) has z-score at or above 0.7?
[out] YES

[in] Check if z-score >= 0.7 (inclusive). Item: COC(=O)Cn1c(C(=O)N2CCCC2)cc2c1C[C@H]1CN(C(=O)c3ccccc3)[C@@](Cc3ccc(F)cc3)(C(=O)OC)[C@@H]21
[out] NO

[in] Tell me whether z-score is at least 0.7 here: COc1ccc(C(O)C2C=CC3C(=O)N(C)C(=O)C3N2N2CCCCC2)cc1 (configuration not stated)
[out] YES

[in] Test whether the compound CC(C)C(CO)N1C(=O)[C@]2(C)C3C(=O)OCCC/C=C\[C@H]3OC23C=CCN(c2ccc(Cl)cc2)C(=O)[C@@H]13 (some centres not stated) records z-score of 0.7 or higher.
[out] NO

[in] Is the recorded value of z-score equal to or greater than 0.7 for this compound? C=C(CCCC)C(=O)CC[C@@H](OC(=O)c1ccccc1-c1ccccc1C(=O)O)c1cccc(OCCO)c1
[out] YES

[in] z-score >= 0.7 for C=C[C@H](COC(C)=O)NS(=O)(=O)c1ccc(Br)cc1 ?
[out] NO

[in] Kindly determine if z-score recorded for CC(C)(C)OC(=O)CC[C@@]1(C(=O)O)N=C(c2ccc(OCCCO)cc2)O[C@@H]1c1ccccc1 is above or exactly 0.7.
[out] NO

[in] Hi team, for CCOC(=CC(=O)OC)CC(O)c1cccc(Cl)c1 (configuration not stated) , is the recorded z-score at or above 0.7?
[out] NO

[in] Is the recorded value of z-score equal to or greater than 0.7 for this compound? CC1CC/C=C\[C@H]2OC34C=CCN(C(C)C)C(=O)[C@H]3N(CCCCCO)C(=O)[C@@H]4C2C(=O)O1 (some centres not stated)
[out] NO

[in] // inclusive: z-score at least 0.7? input: CCOC(=O)C[C@H]1[C@H](OC(=O)c2ccc(C(=O)c3ccccc3)cc2)[C@@H](NC(=O)c2ccc3ccccc3c2)c2cc(OCCCO)ccc2N1C(=O)c1ccccc1
[out] NO
